// reported % Emax cf. ACh (M1) for each item listed
Biological target: human muscarinic M1 receptor (Homo sapiens)
Experiment: Alphascreen Surefire phospho-ERK1/2 functional assay, M1
Format: cell-based
Conditions: CHO cells stably expressing human M1; relative to ACh
METRIC: % Emax cf. ACh (M1) (%)

MOLECULE	UNIT_SPEC	VALUE_REPORTED
CCOC(=O)N1CCC2(CC(N3CC4C(C3)C4OC(C)c3ccccc3)C2)C1 (single isomer, unassigned) [2-28 Isomer 2]	%	104
CCOC(=O)N1C2CCC1CC(N1CC3C(C1)C3C(=O)N(C)CC)C2 (single isomer, unassigned; isomer 1) [7-2 Isomer 1]	%	116
CCOC(=O)N1C2COCC1CC(N1CC3C(C1)C3C(=O)N1CCOCC1)C2 (single isomer, unassigned; isomer 2) [10-13 Isomer 2]	%	101
CCOC(=O)N1CCC2(CC(N3CC4C(C3)C4OC(C)c3ccccc3)C2)C1 (single isomer, unassigned) [2-28 Isomer 1]	%	58
CCOC(=O)N1C2COCC1CC(N1CC3C(C1)C3C(=O)N(CC)C1CC1)C2 (single isomer, unassigned; isomer 2) [10-9 Isomer 2]	%	105
CCOC(=O)N1C2COCC1CC(N1CC3C(C1)C3C(=O)N(C)C1CC1)C2 (single isomer, unassigned; isomer 1) [10-8 Isomer 1]	%	116
CCN(CC)C(=O)C1C2CN(C3CC4CCCC(C3)N4C(=O)OC)CC21 (single isomer, unassigned; isomer 1) [9-3 Isomer 1]	%	106
CCOC(=O)N1C2CCC1CC(N1CC3C(C1)C3C(=O)N(CC)CC)C2 (single isomer, unassigned; isomer 1) [7-3 Isomer 1]	%	123
CCOC(=O)N1C2COCC1CC(N1CC3C(C1)C3C(=O)N(CC)CC)C2 (single isomer, unassigned; isomer 2) [10-2 Isomer 2]	%	113
CCOC(=O)N1C2CCC1CC(N1CC3C(CN(CC)C(C)=O)C3C1)C2 (single isomer, unassigned; isomer 2) [7-5 Isomer 2]	%	23
CCOC(=O)N1C2COCC1CC(N1CC3C(C1)C3C(=O)N(C)C1CC1)C2 (single isomer, unassigned; isomer 2) [10-8 Isomer 2]	%	85
CCOC(=O)N1C2CCCC1CC(N1CC3C(C1)C3C(=O)N(C)CC)C2 (single isomer, unassigned; isomer 2) [9-1 Isomer 2]	%	93
CCOC(=O)N1CCC2(CC(N3CC4C(C3)C4C(CC)=NOC)C2)C1 (single isomer, unassigned) [2-25 Isomer 4]	%	65
CCOC(=O)C1C2CN(C3CC4CCC(C3)N4C(=O)OCC)CC21 (single isomer, unassigned; isomer 2) [7-1 Isomer 2]	%	83
CCN(CC)C(=O)C1C2CN(C3CC4COCC(C3)N4C(=O)OC)CC21 (single isomer, unassigned; isomer 2) [10-3 Isomer 2]	%	81
CCN(C(=O)C1C2CN(C3CC4COCC(C3)N4C(=O)OC)CC21)C(C)C (single isomer, unassigned; isomer 2) [10-7 Isomer 2]	%	100
CCOC(=O)N1C2CCC1CC(N1CC3C(C1)C3C(=O)N(C)CC)C2 (single isomer, unassigned; isomer 2) [7-2 Isomer 2]	%	113
CCOC(=O)N1C2CCCC1CC(N1CC3C(C1)C3C(=O)N(C)CC)C2 (single isomer, unassigned; isomer 1) [9-1 Isomer 1]	%	93
CCOC(=O)N1CCC2(CC(N3CC4C(C3)C4C(CC)=NOC)C2)C1 (single isomer, unassigned) [2-25 Isomer 2]	%	37
CCOC(=O)N1C2CCC1CC(N1CC3C(C1)C3c1csc(C)n1)C2 (single isomer, unassigned; isomer 2) [7-6 Isomer 2]	%	56
COC(=O)N1C2COCC1CC(N1CC3C(C1)C3C(=O)N(C)C(C)C)C2 (single isomer, unassigned; isomer 1) [10-5 Isomer 1]	%	99
CCN(C(=O)C1C2CN(C3CC4COCC(C3)N4C(=O)OC)CC21)C(C)C (single isomer, unassigned; isomer 1) [10-7 Isomer 1]	%	99
COC(=O)N1C2COCC1CC(N1CC3C(C1)C3C(=O)N1CCCCC1)C2 (single isomer, unassigned; isomer 2) [10-12 Isomer 2]	%	99
COC(=O)N1C2COCC1CC(N1CC3C(C1)C3C(=O)N(C)C(C)C)C2 (single isomer, unassigned; isomer 2) [10-5 Isomer 2]	%	101
CCOC(=O)N1C2COCC1CC(N1CC3C(C1)C3C(=O)N1CCOCC1)C2 (single isomer, unassigned; isomer 1) [10-13 Isomer 1]	%	104
CCOC(=O)N1C2CCCC1CC(N1CC3C(C1)C3C(=O)N(CC)CC)C2 (single isomer, unassigned; isomer 1) [9-2 Isomer 1]	%	102

---

Entries and their EC50 values follow.
Target: human muscarinic M1 receptor (Homo sapiens, UniProt P11229)
Sequence (P11229 whole entry): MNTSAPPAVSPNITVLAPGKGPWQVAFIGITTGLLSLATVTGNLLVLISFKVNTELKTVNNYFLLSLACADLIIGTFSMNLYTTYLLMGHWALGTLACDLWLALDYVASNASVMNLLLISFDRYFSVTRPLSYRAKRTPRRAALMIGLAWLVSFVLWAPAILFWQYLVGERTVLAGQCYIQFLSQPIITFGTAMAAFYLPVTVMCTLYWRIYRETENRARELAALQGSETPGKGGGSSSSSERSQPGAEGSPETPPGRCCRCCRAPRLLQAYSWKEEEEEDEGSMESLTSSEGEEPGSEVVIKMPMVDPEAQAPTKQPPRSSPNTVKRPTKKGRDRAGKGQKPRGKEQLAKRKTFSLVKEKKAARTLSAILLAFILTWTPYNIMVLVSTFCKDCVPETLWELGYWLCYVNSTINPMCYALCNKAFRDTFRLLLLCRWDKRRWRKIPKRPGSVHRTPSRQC
Assay: Alphascreen Surefire phospho-ERK1/2 functional assay, M1
Format: cell-based
Conditions: CHO cells stably expressing human M1; agonist 5 min, 37° C.; read-out: pEC50 M1 (converted)
METRIC: EC50 (nM)

COMPOUND	UNIT_SPEC	VALUE_REPORTED
CCOC(=O)N1CC2(CC(N3C[C@@H]4[C@H](C3)[C@H]4c3csc(C)n3)C2)C1	nM	4570
CCOC(=O)N1CCC2(CC(N3CC4C(C3)C4OC(C)c3ccccc3)C2)C1 (single isomer, unassigned) [2-28 Isomer 2]	nM	64.6
CCOC(=O)N1CCC2(CC(N3CC4C(C3)C4C(=O)N3CCC34CC4)C2)C1 (single isomer, unassigned) [2-19 Isomer 2]	nM	13.2
CCOC(=O)N1CC2(CC(N3C[C@@H]4[C@H](C3)[C@H]4C(=O)N(CC)CC)C2)C1	nM	132
CCOC(=O)[C@H]1[C@@H]2CN(C3CC4(C3)CN(C(=O)OCC)C4)C[C@@H]21	nM	9330
CCOC(=O)N1CCC2(CC(N3CC4C(C3)C4C(CC)=NOC)C2)C1 (single isomer, unassigned) [2-25 Isomer 2]	nM	1290
CCOC(=O)N1CCC2(CC(N3CC4C(C3)C4C(CC)=NOC)C2)C1 (single isomer, unassigned) [2-25 Isomer 4]	nM	324
CCOC(=O)N1CCC(N2C[C@@H]3[C@H](C2)[C@H]3C(=O)N(CC)CC)CC1	nM	234
CCOC(=O)N1CCC2(CC(N3CC4C(C3)C4OC(C)c3ccccc3)C2)C1 (single isomer, unassigned) [2-28 Isomer 1]	nM	575
CCOC(=O)N1CCC2(CC(N3C[C@@H]4[C@H](C3)[C@H]4c3ccnn3C)C2)C1 (single isomer, unassigned) [2-29 Isomer 2]	nM	646

---

Target: human muscarinic M2 receptor (Homo sapiens)
Sequence (P08172 1-466): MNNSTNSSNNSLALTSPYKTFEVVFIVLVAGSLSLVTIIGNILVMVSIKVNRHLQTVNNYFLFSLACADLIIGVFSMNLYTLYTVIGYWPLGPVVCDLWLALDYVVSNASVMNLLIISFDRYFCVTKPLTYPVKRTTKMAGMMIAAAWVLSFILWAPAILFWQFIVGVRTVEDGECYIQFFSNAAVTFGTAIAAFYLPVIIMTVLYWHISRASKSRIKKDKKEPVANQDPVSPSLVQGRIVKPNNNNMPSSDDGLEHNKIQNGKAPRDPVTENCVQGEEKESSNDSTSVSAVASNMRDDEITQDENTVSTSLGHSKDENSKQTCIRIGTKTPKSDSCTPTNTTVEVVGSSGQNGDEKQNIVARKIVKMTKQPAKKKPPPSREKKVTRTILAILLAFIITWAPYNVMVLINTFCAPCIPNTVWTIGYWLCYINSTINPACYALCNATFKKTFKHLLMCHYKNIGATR
Experiment: Alphascreen Surefire phospho-ERK1/2 functional assay, M2
Format: cell-based
Settings: CHO cells stably expressing human M2; agonist 5 min, 37° C.
METRIC: pEC50 M2

MOLECULE	TARGET_DESC	VALUE_REPORTED
CCOC(=O)N1C2COCC1CC(N1CC3C(C1)C3C(=O)N1CCOCC1)C2 (single isomer, unassigned; isomer 1) [10-13 Isomer 1]	human muscarinic M2 receptor (Homo sapiens)	< 4.70
CCOC(=O)N1C2CCCC1CC(N1CC3C(C1)C3C(=O)N(C)CC)C2 (single isomer, unassigned; isomer 1) [9-1 Isomer 1]	human muscarinic M2 receptor (Homo sapiens)	< 4.70
CCOC(=O)N1C2COCC1CC(N1CC3C(C1)C3C(=O)N(CC)CC)C2 (single isomer, unassigned; isomer 2) [10-2 Isomer 2]	human muscarinic M2 receptor (Homo sapiens)	< 4.70
CCOC(=O)N1C2COCC1CC(N1CC3C(C1)C3C(=O)N1CCOCC1)C2 (single isomer, unassigned; isomer 2) [10-13 Isomer 2]	human muscarinic M2 receptor (Homo sapiens)	< 4.70

---

Property: % Emax cf. ACh (M4); scope: individual compounds
Molecular target: human muscarinic M4 receptor (Homo sapiens)
Construct: expressed in transfected cells
Sequence (P08173 1-479): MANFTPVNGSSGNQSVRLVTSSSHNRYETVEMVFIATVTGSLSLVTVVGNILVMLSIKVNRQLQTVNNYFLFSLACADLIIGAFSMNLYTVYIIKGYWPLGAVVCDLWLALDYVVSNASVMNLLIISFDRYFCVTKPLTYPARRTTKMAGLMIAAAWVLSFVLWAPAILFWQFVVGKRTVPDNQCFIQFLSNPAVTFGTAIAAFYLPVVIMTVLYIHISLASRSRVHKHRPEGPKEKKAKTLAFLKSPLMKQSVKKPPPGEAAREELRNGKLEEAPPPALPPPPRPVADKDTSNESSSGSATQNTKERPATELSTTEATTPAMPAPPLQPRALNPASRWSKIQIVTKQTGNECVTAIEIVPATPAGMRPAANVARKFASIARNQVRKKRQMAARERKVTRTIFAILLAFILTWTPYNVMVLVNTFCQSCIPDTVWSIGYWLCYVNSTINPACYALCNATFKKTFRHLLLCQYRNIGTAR
Test: Alphascreen Surefire phospho-ERK1/2 functional assay, M4
Type: cell-based
Conditions: CHO cells stably expressing human M4; relative to ACh
METRIC: % Emax cf. ACh (M4) (%)

COMPOUND	TARGET_DESC	UNIT_SPEC	VALUE_REPORTED
COC(=O)N1C2COCC1CC(N1CC3C(C1)C3C(=O)N(C)C(C)C)C2 (single isomer, unassigned; isomer 1) [10-5 Isomer 1]	human muscarinic M4 receptor (Homo sapiens)	%	81
CCOC(=O)N1C2COCC1CC(N1CC3C(C1)C3C(=O)N(C)C1CC1)C2 (single isomer, unassigned; isomer 2) [10-8 Isomer 2]	human muscarinic M4 receptor (Homo sapiens)	%	32
CCOC(=O)N1C2CCC1CC(N1CC3C(C1)C3c1csc(C)n1)C2 (single isomer, unassigned; isomer 2) [7-6 Isomer 2]	human muscarinic M4 receptor (Homo sapiens)	%	73
CCOC(=O)C1C2CN(C3CC4CCC(C3)N4C(=O)OCC)CC21 (single isomer, unassigned; isomer 2) [7-1 Isomer 2]	human muscarinic M4 receptor (Homo sapiens)	%	62
CCOC(=O)N1CCC2(CC(N3CC4C(C3)C4C(CC)=NOC)C2)C1 (single isomer, unassigned) [2-25 Isomer 4]	human muscarinic M4 receptor (Homo sapiens)	%	48
CCOC(=O)N1CCC2(CC(N3CC4C(C3)C4OC(C)c3ccccc3)C2)C1 (single isomer, unassigned) [2-28 Isomer 2]	human muscarinic M4 receptor (Homo sapiens)	%	51
CCOC(=O)N1C2COCC1CC(N1CC3C(C1)C3C(=O)N1CCOCC1)C2 (single isomer, unassigned; isomer 2) [10-13 Isomer 2]	human muscarinic M4 receptor (Homo sapiens)	%	59
CCOC(=O)N1C2CCC1CC(N1CC3C(CN(CC)C(C)=O)C3C1)C2 (single isomer, unassigned; isomer 2) [7-5 Isomer 2]	human muscarinic M4 receptor (Homo sapiens)	%	38
CCN(CC)C(=O)C1C2CN(C3CC4COCC(C3)N4C(=O)OC)CC21 (single isomer, unassigned; isomer 2) [10-3 Isomer 2]	human muscarinic M4 receptor (Homo sapiens)	%	25
CCOC(=O)N1CCC2(CC(N3CC4C(C3)C4OC(C)c3ccccc3)C2)C1 (single isomer, unassigned) [2-28 Isomer 1]	human muscarinic M4 receptor (Homo sapiens)	%	21
CCOC(=O)N1C2CCC1CC(N1CC3C(C1)C3C(=O)N(CC)CC)C2 (single isomer, unassigned; isomer 1) [7-3 Isomer 1]	human muscarinic M4 receptor (Homo sapiens)	%	45
COC(=O)N1C2COCC1CC(N1CC3C(C1)C3C(=O)N(C)C(C)C)C2 (single isomer, unassigned; isomer 2) [10-5 Isomer 2]	human muscarinic M4 receptor (Homo sapiens)	%	90
COC(=O)N1C2COCC1CC(N1CC3C(C1)C3C(=O)N1CCCCC1)C2 (single isomer, unassigned; isomer 2) [10-12 Isomer 2]	human muscarinic M4 receptor (Homo sapiens)	%	86
